Exercise: state measured Valzelli Value (ED50) and Confidence Range for each of the compounds provided.
test system: rats; assay: neural compatibility: intracerebral compatibility / Valzelli value (ED50) in rats; conditions: aqueous meglumine salt solutions, confidence range p 0.05

[
  {
    "Compound": "COCC(=O)Nc1c(I)c(C(=O)O)c(I)c(C(=O)NCCO)c1I",
    "Measurement": "44.9 (36.7-51,8) mg. I/kg."
  },
  {
    "Compound": "CC(=O)Nc1c(I)c(C(=O)O)c(I)c(C(=O)NCC(C)O)c1I (stereo not shown)",
    "Measurement": "50.7 (44.3-56.6) mg. I/kg."
  },
  {
    "Compound": "COCC(=O)Nc1c(I)c(C(=O)O)c(I)c(C(=O)NCCCO)c1I",
    "Measurement": "43.1 (32.6-50.9) mg. I/kg."
  },
  {
    "Compound": "COCC(=O)Nc1c(I)c(C(=O)O)c(I)c(C(=O)NC(C)(C)CCO)c1I",
    "Measurement": "67.2 (58.7-84.8) mg. I/kg."
  },
  {
    "Compound": "COCC(=O)Nc1c(I)c(C(=O)O)c(I)c(C(=O)NCC(C)O)c1I (stereo not shown)",
    "Measurement": "44.6 (35.5-52.2) mg. I/kg."
  }
]

Quick request: Valzelli Value (ED50) and Confidence Range for each listed item, please.
1. CC(=O)Nc1c(I)c(C(=O)O)c(I)c(C(=O)NCCO)c1I [Compound 1, ioxithalamic acid, reference compound]
2. COCC(=O)Nc1c(I)c(C(=O)O)c(I)c(C(=O)NC(C)(C)CO)c1I

Found:
["12.3 (10.3-14.4) mg. I/kg.", "71.4 (61.4-99.9) mg. I/kg."]

These data points were gathered from patent US4132731A.
